The origin of these recorded values is ChEMBL document CHEMBL5584278.

So I've got IC50 readings for E3 ubiquitin-protein ligase CBL-B (Homo sapiens), take a look.

{"molecule": "Cn1cnnc1CC1(c2cccc(N3CC4=C(C(F)(F)F)C=C(CN5CCC(C)(F)CC5)CN4C3=O)c2)COC1", "target_entity": "E3 ubiquitin-protein ligase CBL-B (Homo sapiens)", "IC50": "~6 nM"}
{"molecule": "CC1CC(c2cccc(-c3nc4cc(CN5CCC[C@H](C)C5)cc(C(F)(F)F)c4[nH]3)c2)(c2nncn2C)C1 (some centres undefined)", "target_entity": "E3 ubiquitin-protein ligase CBL-B (Homo sapiens)", "IC50": "~200 nM"}
{"molecule": "C[C@H](c1cc(C(F)(F)F)c2nc(-c3cccc(CC4(c5nncn5C)COC4)c3)[nH]c2c1)N1CCC2(CC2)C1", "target_entity": "E3 ubiquitin-protein ligase CBL-B (Homo sapiens)", "IC50": "~200 nM"}
{"molecule": "Cn1cnnc1[C@H](c1cccc(N2Cc3c(Cl)cc(CNC4(C)CCC4)cc3C2=O)c1)[C@H]1C[C@@H](F)C1", "target_entity": "E3 ubiquitin-protein ligase CBL-B (Homo sapiens)", "IC50": "~170 nM"}

---

# Organism: Homo sapiens
# test_details: Selectivity ratio of IC50 for c-CBL (unknown origin) to IC50 for CBL-B (unknown origin)

{"molecule": "Cn1cnnc1C1(c2cccc(N3Cc4c(cc(CNC5(C)CCC5)cc4C(F)(F)F)C3=O)c2)CC2(CC(F)(F)C2)C1", "Ratio IC50": 6}
{"molecule": "CO[C@H]1C[C@@](c2cccc(N3Cc4c(cc(CNC5(C)CCC5)cc4C(F)F)C3=O)c2)(c2nncn2C)C1", "Ratio IC50": 6}
{"molecule": "CC1CC(c2cccc(N3C(=O)c4cc(CNC5(C)CCC5)cc5c(F)ccc3c45)c2)(c2nncn2C)C1 (centres undefined)", "Ratio IC50": 10}
{"molecule": "CC1CC(c2cccc(N3Cc4c(cc(CN5CCC[C@H](C)C5)cc4C(F)(F)F)C3=O)c2)(c2nncn2C)C1 (some centres undefined)", "Ratio IC50": 4}

---

# Species on record: Homo sapiens
# test_details: Selectivity ratio of IC50 for c-CBL (unknown origin) to IC50 for CBL-B (unknown origin)
Measured Ratio IC50, listed per entry for reference.

{"molecule": "Cn1cnnc1[C@H](c1cccc(N2Cc3c(Cl)cc(CNC4(C)CCC4)cc3C2=O)c1)[C@H]1C[C@@H](F)C1", "Ratio IC50": 6.5}
{"molecule": "Cn1cnnc1CC1(c2cccc(N3CC4=C(C(F)(F)F)C=C(CN5CCC(C)(F)CC5)CN4C3=O)c2)COC1", "Ratio IC50": 10}
{"molecule": "CC1CC(c2cccc(-c3nc4c(C(F)(F)F)cc(CN5CCC[C@H](C)C5)cc4[nH]3)c2)(c2nncn2C)C1 (stereo not given in full)", "Ratio IC50": 50}
{"molecule": "COCCNCc1cc(C(F)(F)F)c2oc(-c3cccc(-c4ccc(F)cc4-c4nncn4C)c3)nc2c1", "Ratio IC50": 50}
{"molecule": "C[C@H](c1cc(C(F)(F)F)c2nc(-c3cccc(CC4(c5nncn5C)COC4)c3)[nH]c2c1)N1CCC2(CC2)C1", "Ratio IC50": 50}
